assay: soluble fraction after stress (log2 fold change); higher = more stays soluble; pooled small domains, quantitative proteomics; settings: stress: 75 degC;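 further: 20 min heating vs room temperature control held 20 min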
What soluble fraction (log2) was measured for each of the following?
Answers are plain numbers.

Some solved entries appear below for comparison.
Sequence Data	Quantitative Readout
HMNNKVAVKSGYYFEIFNKEEIPTTLAKTKQKVKINNIQYDLYQGMSLDDERKIDDMFGDRMGYSIDDY	-1.07
HMADMKIHLRPYAHDTNRWHVDIRLMHPTAATEIRKRLVAPAGLSEAQARAWGERQVPTILGKALGVI	-1.65
HMPDLSAEERNIVEALQKSNDLQVNLIAVKTGMDMGTLSATLFGLEMKGLVKLMAGGTYHLI	-1.11

Now for the sequence whose soluble fraction (log2) we want.
[in] What value of measured soluble fraction (log2) is listed for HMEDQITNQQFTMTKQSILDLLVKKSYPPYELANELHLKKEEVLPIIRFLIAENEIHFKDGMLHLPH ?
[out] -1.01

----------
assay: soluble fraction after stress (log2 fold change); higher = more stays soluble; pooled small domains, quantitative proteomics; conditions: stress: 75 degC
What soluble fraction (log2) was measured for each of the following?
Answers are plain numbers.

Some solved entries appear below for comparison.
Sequence Data	soluble fraction (log2)
HMNLDPIKRKSEILSLFESHKNVKFNEIFFEKVNKEFTVLTFLIILELVKDNIIDFSQTQEGLIEFFTR	-0.00641
HMQISYDVPNLIGKSYEEVMTDPSILGEHFTVVLGETKTDEDTDAGVILHQDPAADSKVQDEVTPITVTVS	0.374

Now for the sequence whose soluble fraction (log2) we want.
[in] What value of measured soluble fraction (log2) is listed for HMGSLVKLQSAAELHQAGRSAEAVPILLEVLATNPRLVDGWEILANALEKLGRLDEALAALKKTVALSPPG ?
[out] -1.55

----------
assay: soluble fraction after stress (log2 fold change); higher = more stays soluble; pooled small domains, quantitative proteomics; details: stress: 75 degC
Property Measured: soluble fraction (log2)
Answers are plain numbers.

Some solved entries appear below for comparison.
Sequence Data	soluble fraction (log2)
HMDSDELEAFRLITSVNGVGPKLGIAILSEFTAEKLTVFIASGDAKALTAASGVGIKLAQRIVLELKDKVG	-0.351
HMSNFGALLRMRRLEAGLSYRGLAEQSGLARATLVNLEQGLTKPSPLTMRRLASVKALRLTEL	-3.17
HMGKLGENIKRIREGMGLSQRQFGELIGKSDSQIWSYENDRTDILASTLYKIAAVANVDFNNLMAGIIP	-1.07
HMDNPKGNLQEAVQAKGNEPIEYRVLNVDGPDHAREFKIAVFIGGKRKGTGVGNSKKKAEEIAAEKAFKRM	0.109
HMLSDHGLNDRQIMVIAGLMNGGTVTVRSIESQYGVSLNTARADVKMLVDAGLLTETGREVNMKVYSWSGK	-2.05

Take each entry in turn and give its soluble fraction (log2).
1. HMGWQPDPLTTRERLVAELATQASNAQIAEQLHLSVRTVEGHLAHVYTKLGITTRRELPAALAGAR
2. HMKFYKMIDESDEKIENPEIMIFQIIELVSSTTYSAIINKEPVDVETLKPYLYQTIRTIIINHQS
3. HMNDGEIAAPVSGTLQSFKVEDGQTVSEGDLVAVMEAMKMETQILATKGGTIRLLVKEGDYLQAGHALMTI
4. HMESYDSEIKEVLDLAGKGRWEEAQTKADALREMAPNNSLVERLHGWVLQAAHQRREQALENDIRE
5. HMANTAKVNVDTANLRETADENSKILKQLSLNDNLEVVEETGDWYKVKNSNVTGYVRKDLVTVEN

[out]
1. -1.55
2. 0.363
3. -0.667
4. 0.432
5. 0.31

Take each entry in turn and give its soluble fraction (log2).
1. HMETIHEMVNRLSSEGFIKNEDGIWYLRDRRGDGTKWLKNPFFESTGEKDAFALIDHLKVNDELLSKLRK
2. HMQNVFARKNLTSVSVDKLGEEEILLFKQSFESKNLTSSEALRDLSKKGMSEAELRKLKVRLTQL

[out]
[-0.621, -0.287]

Take each entry in turn and give its soluble fraction (log2).
1. HMHEYSDIEHRILDAAREVFIRKGYDSATMGDIALLAGMSRTSVNYYFRNKERLFEAIFEEII
2. HMSMNSWFVEKERDNTRIDKFLNEQMADISRSYIQKLIKDDLVTVDLRPVKANYKVKEGDRVEVTLPEPV

[out]
1: -1.91; 2: 0.000708

Take each entry in turn and give its soluble fraction (log2).
1. HMSVTIDAGGKVYLQESEIADDQLVPRLVAISNNGYDKPIYLRADKTVGYGRVAEVMSLLNAAGFTKLVLV
2. HMNKNLQLMINEIKKGLASEDIETRKKSVLMLSRIDAPEIIQVLEPLKDDSSEEIRKISSKIISVLSKKYT

[out]
-0.513
-0.108

Take each entry in turn and give its soluble fraction (log2).
1. HMYMLYQQLADSLRDKIYEGTYTFGDKIPSERTLAATFGISHLTVRKALAILEEEGLLDRRQGNGTFVRV
2. HMAKLGITQREQEVLQLLVTGKTYKEIAAELFISLPTVKTHVSNIYSKAKVRNRLELSNLINYI
3. HMDHSSLIKKLRLERGLSQKKLAQGISQRSTLASFENNATKISYNILIQYLDRMNVTLEEYQFMLDGNNL
4. HMDGRVQATAEKLRAALDRLARSSVGSPMIERQLTVAALAREARVGRNAIYANHRDILDELIRVRQQRRA
5. HMEREKTYLMPDLIGRKAERVVPRLQASGFKVEDIRHVYYPGLEKGVIVRQSPPGGYPIQKRNLINLEVS
6. HMSRLMIVTPDGRIMDDVPEFGEVRTTTDVNGRVLVLDRNNVVIGFEMTPREYRREFGRNPF

[out]
[-1.09, -3.37, -2.27, 0.155, -0.581, -1.12]

Take each entry in turn and give its soluble fraction (log2).
1. HMQIVHKHLQLQPDQGALRAALYSHKAVVAEQVNEQGAINLEIKLAESDFLRLLKSSGLKLQDLVSLS
2. HMQAMDYEGFKKEILKMSDIDLSLYKEKQMKRRIDSLIRKNGYEHYEDYVQALKQDSGLYNEFINYLTI
3. HMNGKPDMTPIPAGSRNNDLHAWAYGRLLNHPDNAEAIRRDLFERGQTSGLKESELETIWQSIRRQLGGD
4. HMTYKPAADFKPSDTSSLKEGMKVEHPKFGFGTVMKMEEVGTERKARINFADFGEKTLLLSFAKLKIHEN
5. HMIDIDNLEKAAILLLSMGTEAAAKVMQKLSRDEVQRLISKMASLSGVSSIEAKWTLQQFFNQYREQSG
6. HMATNVLEISTRNKNILIQDSLNLVESFYSKSDNQYWYKLVFKTKDDLNKFLQEVSEDENTITYKTSSI

[out]
-1.35
0.571
0.44
-0.256
-0.786
-0.359

Take each entry in turn and give its soluble fraction (log2).
1. HMKELASKYEISEYMKFLIENLDKSNFFYPIEKRESMINNIFSIYSKADLSKKELNMLWGMLKKLR
2. HMPHFGVVLQMDDWKTLRDRLEARDDIDWVMKPNLRFEGQPGEQATLFIRDPSGNALEFKGFADLSQVF
3. HMAQLPADMSRVKSADVSDAQLREFVQKAQASGQTETQLFREFSRRGMPTNEINILRSRMVGLQNN
4. HMSKHAIQNELEKIEGIGKQTADSLLKEFKSVKKLRTLPLSEIEKVIGKSKATIVFEALHKDK

[out]
-2.31
-0.116
0.152
0.00931

[in] What value of measured soluble fraction (log2) is listed for HMEKLPRYILPGVPKVKSINISSALDGLVQDYSREFNISQKDIFQIALVEFFKKYGYHNAVKAVL ?
[out] -2.29

----------
What soluble fraction (log2) was measured for each of the following?
test: soluble fraction after stress (log2 fold change); higher = more stays soluble; pooled small domains, quantitative proteomics; conditions: stress: 75 degC

Some solved entries appear below for comparison.
Sequence Data	soluble fraction (log2)
HMQETPAMLAMKELPTEDEQRIYMMLQEDYDSVLLVKTIRNAFSQNPQLTRQQLLPIILTWLMT	-1.33
HMAEVGDFTLAELIKVLFNEAGVLKAPVELRNDNTGGLQYRVGAYTDSETGWETIASIADLKGA	-0.734
HMFKDVTVPSVINKTEAEATNMLKGLNLVVSVEYEENANKSDGIVTAQNVNANKVIKEGETVTITVNKQP	0.113

Now for the sequence whose soluble fraction (log2) we want.
[in] What value of measured soluble fraction (log2) is listed for HMELEQLKSQLTGFLKANREQIFTAQNLADGLRMTDSQGYKQVVNALNASVRDGDVIDIKNGYQYNKN ?
[out] 0.0444

----------
experiment: soluble fraction after stress (log2 fold change); higher = more stays soluble; pooled small domains, quantitative proteomics; conditions: stress: 75 degC
Answer 0 if soluble fraction (log2) is under -2, and 1 if it is -2 or more.

Example results:
Sequence Data	Assigned Class
HMVWINIRDLSDLFSKSGKSENSKNILDLQTLKIEKLLGGGQINTPYTIKVKQATPSAIEKVKQAGGEVIL	1
HMSSDDEAFKRELVGLIPHLRAFARTLTGDPTAADDLAQDAMMKAWDARASYQMGTNMKAWTFMILRNQFY	0
HMDVRKSISDLKALGLSDAAVTVYGTIGNKPVHIDKIVSELGIPVFKVLTALTQLEMKGLVTAMQGRMYVL	0
HMNEWVSVEERLPTDERPVLAFIGYADTMNGFITTSYYFRFDPDPHWLGEGLIPVGLKTLFWMPLPAP	1
HMGLSAEAARMAIQDAGLSKEDFAQKLGIKKVERVVEWEAGTSKPTFVQAQKIANATNIPFGYLFLVNPPK	1

[in] Does the reported soluble fraction (log2) for HMGDIFTAEDAKERIDYSGVDGIMLARGIFGNPWLIRDIREYLEYGKILHPVTQLDRVNMAIEHTRKT fall at or above the -2 mark?
[out] 1

[in] Does the reported soluble fraction (log2) for HMVSTEDEISDKLLLDFALEKLSENEKQIVKLRYYNSLTQSKTAEILNMTQVQVSRSEKKILAKLRGII fall at or above the -2 mark?
[out] 1

[in] Does the reported soluble fraction (log2) for HMKRTKLEEATEWLRDRLSDGVKYNGEELLREGESADMARRTLRRAAQELGVIIERERGARGRWFWSLP fall at or above the -2 mark?
[out] 1

[in] Does the reported soluble fraction (log2) for HMGLVDSLEPLLRRVYEALPQRRSMTTERLAVAAGLDEESVKVALARLQLSAFVGVDERGWHRSL fall at or above the -2 mark?
[out] 0

[in] Does the reported soluble fraction (log2) for HMTYTMVAYGSQGDAVRQLQSELNRHGYQLDEDGVFGKKTRAAVRDYQKKNSLRLDGIAGDETWGSLLA fall at or above the -2 mark?
[out] 1

[in] Does the reported soluble fraction (log2) for HMNDYIGVDRAKEIALNHARMNESDVQFAKAKLENDDGVVEYEIEFYFGRTEYDYTIDAVSGNIIEYDVEY fall at or above the -2 mark?
[out] 1

[in] Does the reported soluble fraction (log2) for HMVSEASELTDTINKIGSLAQALVGANKLSKTDLVGIIKKYHTSANYNSITDIGVAKNILAELEAKN fall at or above the -2 mark?
[out] 1

[in] Does the reported soluble fraction (log2) for HMGEVPPGWSVEALAAIERDLAHHVGPVARVLVQRGARLHTTTDDLRSALANAITDDLARRRFMQP fall at or above the -2 mark?
[out] 1

[in] Does the reported soluble fraction (log2) for HMSQLLHELLAHVLKDRIISGEWPAGSRIMSEHALQERYGVSRGTVRRALAQLVQEGLLVQRKGKGTFVTR fall at or above the -2 mark?
[out] 0

[in] Does the reported soluble fraction (log2) for HMGREVVVPNLAGIEKEVALDLLKKNRLGGMITGTRFSSDFPAGQVIQQMPEAGSRVKVGKQVKLVLSEG fall at or above the -2 mark?
[out] 1

[in] Does the reported soluble fraction (log2) for HMKFTSEKDISLLELVKAKMGFVSNTKARNVIKIGQIMVSGKVIKIPSTLIKPGTEVELARRV fall at or above the -2 mark?
[out] 1

[in] Does the reported soluble fraction (log2) for HMLPVFNYQVYRTHGLIYVYAKDNDSFDQIARSMGFKAKQLMKFNEVPEDFPLQAGDIVYLEKKKK fall at or above the -2 mark?
[out] 0
